Task for the reader: assign each of the following molecules its reported pIC50.
- ASSAYED TARGET: Histone deacetylase 2 (Homo sapiens)
- Sequence (Q92769 whole entry): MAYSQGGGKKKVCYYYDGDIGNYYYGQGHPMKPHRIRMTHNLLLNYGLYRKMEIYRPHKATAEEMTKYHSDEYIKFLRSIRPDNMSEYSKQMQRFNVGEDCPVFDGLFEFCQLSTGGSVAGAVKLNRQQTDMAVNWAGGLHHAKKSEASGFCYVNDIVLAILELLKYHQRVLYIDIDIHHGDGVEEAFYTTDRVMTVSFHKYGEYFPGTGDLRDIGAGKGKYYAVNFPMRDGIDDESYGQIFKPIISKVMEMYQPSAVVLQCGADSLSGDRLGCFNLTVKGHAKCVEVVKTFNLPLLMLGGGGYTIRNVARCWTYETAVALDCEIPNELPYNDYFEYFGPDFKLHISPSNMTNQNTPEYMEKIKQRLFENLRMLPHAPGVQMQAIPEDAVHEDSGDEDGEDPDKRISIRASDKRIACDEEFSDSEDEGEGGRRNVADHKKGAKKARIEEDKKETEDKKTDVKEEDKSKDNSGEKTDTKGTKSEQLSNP
- METHOD DESCRIPTION: Inhibition of HDAC2 (unknown origin) using 6-carboxyfluorescein peptide as substrate preincubated with compound for 2 hrs followed by substrate addition by electrophoretic mobility shift assay
Give only the number. pIC50 is defined as minus log10 of concentration in molar units.

(Q) Under Histone deacetylase 2 (Homo sapiens): pIC50 value of "Nc1ccccc1NC(=O)c1ccc(CNC(=O)OC2CCN(S(=O)(=O)CCl)CC2)cc1" ?
(A) 6.29

(Q) Same read-out for "C=C=CC(=O)N1CCC(OC(=O)NCc2ccc(C(=O)Nc3ccccc3N)cc2)CC1" ?
(A) 6.08

(Q) Same read-out for "Nc1ccccc1NC(=O)c1ccc(CNC(=O)OC2CCN(S(=O)(=O)c3c(F)c(F)c(F)c(F)c3F)CC2)cc1" ?
(A) 6.49

(Q) Same read-out for "C=CS(=O)(=O)N1CCC(OC(=O)NCc2ccc(C(=O)Nc3ccccc3N)cc2)CC1" ?
(A) 6.04

(Q) Same read-out for "Nc1ccccc1NC(=O)c1ccc(CNC(=O)OC2CCCCC2)cc1" ?
(A) 6.31

(Q) Same read-out for "CN(C)C/C=C/C(=O)N1CCC(OC(=O)NCc2ccc(C(=O)Nc3ccccc3N)cc2)CC1" ?
(A) 6.53

(Q) Same read-out for "C=CC(=O)N1CCC(OC(=O)NCc2ccc(C(=O)Nc3ccccc3N)cc2)CC1" ?
(A) 6.06

(Q) Same read-out for "C#CC(=O)N1CCC(OC(=O)NCc2ccc(C(=O)Nc3ccccc3N)cc2)CC1" ?
(A) 6.12

---

- ASSAYED TARGET: Polyamine deacetylase HDAC10 (Homo sapiens, UniProt Q969S8)
- Sequence (Q969S8 whole entry): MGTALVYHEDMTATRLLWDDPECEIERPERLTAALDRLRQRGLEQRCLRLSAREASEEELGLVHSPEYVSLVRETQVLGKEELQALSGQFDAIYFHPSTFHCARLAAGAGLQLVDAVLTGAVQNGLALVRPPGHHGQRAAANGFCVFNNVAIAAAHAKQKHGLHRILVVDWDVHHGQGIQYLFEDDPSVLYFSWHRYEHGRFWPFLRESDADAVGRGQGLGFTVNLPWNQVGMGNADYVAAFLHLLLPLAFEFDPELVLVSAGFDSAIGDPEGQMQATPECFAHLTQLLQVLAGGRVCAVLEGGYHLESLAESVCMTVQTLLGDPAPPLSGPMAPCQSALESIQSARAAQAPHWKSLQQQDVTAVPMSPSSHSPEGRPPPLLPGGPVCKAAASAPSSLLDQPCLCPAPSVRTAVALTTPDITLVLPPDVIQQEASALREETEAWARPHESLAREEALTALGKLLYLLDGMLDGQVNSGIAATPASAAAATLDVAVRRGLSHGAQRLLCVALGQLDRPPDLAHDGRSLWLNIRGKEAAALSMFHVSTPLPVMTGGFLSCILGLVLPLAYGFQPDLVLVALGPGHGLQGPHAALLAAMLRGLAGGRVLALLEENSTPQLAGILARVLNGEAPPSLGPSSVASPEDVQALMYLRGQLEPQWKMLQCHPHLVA
VALUE TYPE: IC50

(Q) Query (molecule): "Nc1ccccc1NC(=O)c1ccc(CNC(=O)OC2CCN(S(=O)(=O)c3c(F)c(F)c(F)c(F)c3F)CC2)cc1" ; field requested: IC50
(A) > 10 µM

---

- ASSAYED TARGET: Histone deacetylase 9 (Homo sapiens, UniProt Q9UKV0)
- Sequence (Q9UKV0 whole entry): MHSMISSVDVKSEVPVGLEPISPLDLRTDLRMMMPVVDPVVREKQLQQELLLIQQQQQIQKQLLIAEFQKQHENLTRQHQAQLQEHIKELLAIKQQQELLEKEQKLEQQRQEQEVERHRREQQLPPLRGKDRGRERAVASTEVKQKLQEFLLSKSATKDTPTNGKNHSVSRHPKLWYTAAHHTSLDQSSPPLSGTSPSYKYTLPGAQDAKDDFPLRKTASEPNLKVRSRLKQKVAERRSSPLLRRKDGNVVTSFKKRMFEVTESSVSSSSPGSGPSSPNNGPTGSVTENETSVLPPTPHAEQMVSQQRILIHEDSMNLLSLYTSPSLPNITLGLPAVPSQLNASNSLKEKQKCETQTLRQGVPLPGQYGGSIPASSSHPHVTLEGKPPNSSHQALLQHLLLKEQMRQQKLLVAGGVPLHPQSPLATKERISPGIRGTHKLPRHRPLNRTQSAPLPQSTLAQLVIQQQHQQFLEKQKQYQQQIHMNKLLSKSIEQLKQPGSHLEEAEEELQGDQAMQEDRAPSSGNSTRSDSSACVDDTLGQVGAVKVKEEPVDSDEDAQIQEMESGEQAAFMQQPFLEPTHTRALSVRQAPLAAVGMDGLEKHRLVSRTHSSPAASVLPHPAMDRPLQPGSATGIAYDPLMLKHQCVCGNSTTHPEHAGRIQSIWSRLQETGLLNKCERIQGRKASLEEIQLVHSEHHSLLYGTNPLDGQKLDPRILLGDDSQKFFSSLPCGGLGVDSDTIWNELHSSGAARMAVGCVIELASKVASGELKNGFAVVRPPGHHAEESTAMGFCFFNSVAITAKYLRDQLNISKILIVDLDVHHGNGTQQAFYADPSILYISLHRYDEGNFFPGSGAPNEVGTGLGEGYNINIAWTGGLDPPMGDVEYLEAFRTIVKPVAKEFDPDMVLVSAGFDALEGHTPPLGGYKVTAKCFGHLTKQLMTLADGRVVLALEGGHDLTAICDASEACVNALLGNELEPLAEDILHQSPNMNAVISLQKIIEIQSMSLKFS
pIC50: −log10 of the molar value.
VALUE TYPE: pIC50

(Q) Query (compound): "Nc1ccccc1NC(=O)c1ccc(CNC(=O)OC2CCN(S(=O)(=O)c3c(F)c(F)c(F)c(F)c3F)CC2)cc1" ; field requested: pIC50
(A) < 5.00
